test system: Moloney murine leukemia virus; experiment: Compound was tested for its antagonistic activity against Moloney leukemia virus (MoLV) replication; type: functional, organism-based
pIC50: −log10 of the molar value.
Each entry gets NOT MET if its pIC50 stays under 5, and MET if its pIC50 is 5 or above.

{"COMPOUND": "CCCCCCCCCCCCC[S+](C)(=N)[O-] (stereo not given)", "ASSIGNED CLASS": "MET"}
{"COMPOUND": "CCCCCCCCCCCCC[S+](=N)([O-])CC(=O)OCC (stereo not given)", "ASSIGNED CLASS": "NOT MET"}

Please tell me: is the compound CCCCCCCCCCCCC[S+](=N)([O-])Cc1ccccc1 (stereo not given) at or over 5 in terms of pIC50?
NOT MET

Given C/C=C/C/C=C/CCC(=O)[C@H]1O[C@H]1C(N)=O [CERULENIN] , state whether its pIC50 is at least 5.
MET
